All figures here come from PubChem BioAssay (NCI).

- Test system: MOLT-4 leukemia
- experiment_summary: NCI tumour cell line growth inhibition, 48 h
Where a SMILES comes first, the peptide text is derived from it. [ ]: non-standard residue; d: D form. The star is where a group is joined. ξ: configuration not given here. ξD = NC(CC(=O)O)C(=O)O; Ac3c = NC1(C(=O)O)CC1; Boc = CC(C)(C)OC(=O)*; OBn = c1ccc(CO*)cc1
Recorded TGI, one value per entry.

- molecule: "COc1cc([C@@H]2c3cc4c(cc3C(Br)[C@H]3COC(=O)[C@H]23)OCO4)cc(OC)c1OC (stereo partly specified)"
  TGI: "> 100 µM"
- molecule: "COC(=O)Nc1nc2ccc(Oc3ccc(NC(=O)Nc4cccc(Br)c4)cc3)cc2[nH]1"
  TGI: "> 15.4 µM"
- molecule: "CCCn1c(=O)c2ccccc2[n+]2c(-c3ccc([N+](=O)[O-])cc3)csc12"
  TGI: "79.9 µM"
- molecule: "COC(=O)C1(NC(=O)C(CC(=O)OCc2ccccc2)NC(=O)OC(C)(C)C)CC1 (stereo unspecified) (Boc-[ξD](OBn)-[Ac3c]-OMe)"
  TGI: "> 100 µM"
- molecule: "Cc1cc(Nc2ccc(N=Nc3ccc(O)c4ncccc34)cc2)nc(C)n1"
  TGI: "48.3 µM"

Form: molecule = C=C(CC(=O)Nc1ccc(C(=O)OC)o1)C(=O)OC ; TGI = 47.8 µM

Form: molecule = S=c1nc2[nH]c3ccc(Br)cc3c2n[nH]1 ; TGI = > 100 µM

Form: molecule = OCCCCC#Cc1ccccc1C#Cc1ccccc1F ; TGI = 49.8 µM

Form: molecule = COc1c(OC)c(O)c2c(=O)c(OC)c(-c3ccc4c(c3)OCO4)oc2c1O ; TGI = > 100 µM

Form: molecule = CN(C)C(=S)NN=C(c1ccccn1)c1ccccn1 ; TGI = 2.15 µM

Form: molecule = NC(c1ccccc1)(C(F)(F)F)P1(=O)OC(=O)c2ccccc2O1 (stereo unspecified) ; TGI = > 100 µM

---

Recorded TGI, one value per entry.
- Test system: DMS 273 small cell lung
- experiment_summary: NCI tumour cell line growth inhibition, 48 h

Worked examples follow.
- compound: "CCN(CC)CC(=O)/C=C/c1ccc(C)cc1"
  system_tested: "DMS 273 small cell lung"
  TGI: "55 µM"
- compound: "CC1=C(C)CC2(SC1)C(=O)c1ccccc1C2=O"
  system_tested: "DMS 273 small cell lung"
  TGI: "> 100 µM"
- compound: "COc1cccc2c1C1(O)C2CCCC12OCCCO2 (stereo unspecified)"
  system_tested: "DMS 273 small cell lung"
  TGI: "> 100 µM"
- compound: "O=c1[nH]c(-c2ccccc2)nc2ccc(Cl)cc12"
  system_tested: "DMS 273 small cell lung"
  TGI: "> 100 µM"

Form field, TGI with DMS 273 small cell lung, item CCNc1c(C(=O)N(CC)CC)c(=O)[nH]c2ncccc12 : > 100 µM

Form field, TGI with DMS 273 small cell lung, item CN(C)CCCNc1c2ccccc2nc2cccc([N+](=O)[O-])c12 : 0.0184 µM

---

Recorded TGI, one value per entry.
- System: SW-620 colon
- experiment_summary: NCI tumour cell line growth inhibition, 48 h

Worked examples follow.
- compound: "CCN(CC)c1ccc(N=C2C=C(C(=O)Nc3ccc(S(C)(=O)=O)cc3)C(=O)c3ccccc32)c(C)c1"
  TGI: "> 100 µM"
- compound: "C[C@@H]1C[C@]2(C[C@@H](C)[C@H]3C(C[C@@]4(C)CCC[C@@H]5C6=C[C@H](CCC34C)OC6=CC(=O)OC5(C)C)O2)OC1=O (some centres undefined)"
  TGI: "> 51.5 µM"
- compound: "O=c1[nH]c(=O)n(C2CC(O)C(CO)O2)cc1C(OCC(F)(F)F)OCC(F)(F)F (centres undefined)"
  TGI: "> 100 µM"
- compound: "[N-]=[N+]=NC1CC(n2cc(COCC(F)(F)F)c(=O)[nH]c2=O)OC1CO (centres undefined)"
  TGI: "> 100 µM"

Form: compound = O=C(Nc1c(Cl)cc([N+](=O)[O-])cc1Cl)C(=O)C1C(=O)NC(=S)NC1=O ; TGI = > 100 µM

Form: compound = O=c1[nH]c(=O)n(COCc2ccccc2)c2ccc(Br)cc12 ; TGI = > 100 µM

Form: compound = Cc1ccc(NC(=S)Nc2c(C)n(C)n(-c3ccccc3)c2=O)cc1 ; TGI = > 100 µM

Form: compound = C=CCN(c1cc(OCc2ccccc2)c(NC(C)=O)cc1[N+](=O)[O-])S(C)(=O)=O ; TGI = > 100 µM

Form: compound = CCCCCCCCCCCCCC[P+](CCCCCC)(CCCCCC)CCCCCC ; TGI = 1.15 µM

---

- Test system: SK-MEL-28 melanoma
- experiment_summary: NCI tumour cell line growth inhibition, 48 h
test_readout: TGI (µM)
Report as a plain number; the unit µM is understood.

Worked examples follow.
- compound: "C=C1C(=O)O[C@H]2[C@H]1CC/C(CNC(=O)/C=C/c1cccc(OC)c1)=C\\CC[C@@]1(C)O[C@@H]21"
  test_readout: "TGI"
  measured_value: 4.23
- compound: "COc1ccc(C2=CC(c3cc(OC)c(OC)c(OC)c3)NC(=O)N2)cc1OC (stereo not given)"
  test_readout: "TGI"
  measured_value: 20.5

Form: compound = C=CC(C)(C)N[C@@H](C(=O)N1CCC[C@H]1c1nc(-c2nc(C(=O)OCC=C(C)C)c(C)o2)c(C)o1)C(C)C ; TGI = 38.2

Form: compound = c1cc(C2CCCCC2)ccc1OCCCCCCN1CCNCC1 ; TGI = 8.76

Form: compound = CCCCCCOc1ccc(/C=N/NC(N)=S)cc1 ; TGI = 38.4

Form: compound = CCN(CC)CC(=O)/C=C/c1ccc(C)cc1 ; TGI = 43

---

- Tested on: PC-3 prostate
- experiment_summary: NCI tumour cell line growth inhibition, 48 h; in the data active = GI50 below about 0.43 µM; inactive = the rest
Give one outcome, nothing more. List: y (active), n (inactive)

- molecule: "CN(C)C(=S)NN=C(c1ccccn1)c1ccccn1"
  category: "y"

Would you mind telling me which call this test gave O=c1[nH]cnc2c1nnn2C1OC(CO)C(O)C1O (stereo not given) ? n

Would you mind telling me which call this test gave Nc1ccccc1NC(=O)CCCCCCC(=O)Nc1ccc2c(c1)/C(=C/c1ccc[nH]1)C(=O)N2 ? n

Would you mind telling me which call this test gave COc1ccc(C2=CC(c3cc(OC)c(OC)c(OC)c3)NC(=O)N2)cc1OC (stereo not given) ? n

---

Recorded GI50, one value per entry.
- System: SW-620 colon
- experiment_summary: NCI tumour cell line growth inhibition, 48 h

Worked examples follow.
- compound: "Cc1cccc2nc3cccc(C(=O)NCCC[N+](C)(CCCNC(=O)c4cccc5nc6cccc(C)c6nc45)Cc4c([N+](=O)[O-])ncn4C)c3nc12"
  measured_value: "49.3 µM"
- compound: "O=S(=O)([O-])[O-].[Cl-].[NH2-].[NH2-].[NH2-].[NH2-].[Ru+3].c1ccc(-c2cccnc2)cc1"
  measured_value: "> 100 µM"
- compound: "Nc1ccc(-c2nc3ccccc3[nH]2)c(O)c1"
  measured_value: "29.1 µM"
- compound: "COc1cc(N=Nc2ccccc2)cc(/C=N\\[N-]C(N)=S)c1[O-].COc1cc(N=Nc2ccccc2)cc(/C=N\\[N-]C(N)=S)c1[O-].[Fe+4]"
  measured_value: "50.2 µM"
- compound: "Cc1ccc2c[c]1[Hg][CH2]COS2(=O)=O"
  measured_value: "17.8 µM"

Form: compound = O=CN1N=C(c2ccc(Nc3ccnc4cc(Cl)ccc34)cc2)CC1c1ccccc1 (centres undefined) ; GI50 = 2.73 µM

Form: compound = OCCCCC#Cc1ccccc1C#Cc1ccccc1F ; GI50 = 22.2 µM

Form: compound = N#Cc1cccc(C(=O)c2cnn(-c3ccc(F)cc3)c2N)c1 ; GI50 = > 25 µM

Form: compound = Nc1c(C(=O)c2cccc(-c3ccc[n+]([O-])c3)c2)cnn1-c1ccc(F)cc1F ; GI50 = > 25 µM

---

- Tested on: NCI-H522 lung
- experiment_summary: NCI tumour cell line growth inhibition, 48 h
test_readout: TGI

Worked examples follow.
- compound: "CCOC(=O)c1cc2c(n1Cc1cc(OC)cc(OC)c1)-c1oncc1CCC2"
  TGI: "0.0682 µM"
- compound: "Cn1ccnc1C(c1nccn1C)C(C)(C)[N+](=O)[O-]"
  TGI: "> 100 µM"
- compound: "C=C(C)C(=O)OC1CC2(C)OC2CC(OC(C)=O)/C(C)=C/C2OC(=O)C(=C)C21 (stereo not drawn)"
  TGI: "0.851 µM"
- compound: "O=C(Nc1ncc(Cc2ccccc2)s1)c1ccc2c(c1)OCCCO2"
  TGI: "> 100 µM"
- compound: "Cc1cc2c(cc1C)[n+](=O)c(C(=O)/C=C/c1ccc(Cl)cc1)c(C)n2[O-]"
  TGI: "50.4 µM"
- compound: "Cc1ccc(S(=O)(=O)NC(=O)NCCC(=O)O)cc1"
  TGI: "> 100 µM"

Form: compound = Cc1ccc2c[c]1[Hg][CH2]COS2(=O)=O ; TGI = 42.8 µM

Form: compound = Cc1cc(=O)c2cc(N=Cc3ccc([N+](=O)[O-])o3)ccc2o1 ; TGI = > 100 µM

Form: compound = CC(C)(C)OC(=O)NC(Cc1ccc(O)cn1)C(N)=O (stereo not drawn) ; TGI = > 100 µM

Form: compound = CC(=NCCN(CCN=C(C)c1c(O)cc(C)oc1=O)CCN=C(C)c1c(O)cc(C)oc1=O)c1c(O)cc(C)oc1=O ; TGI = > 100 µM

Form: compound = CS(=O)(=O)N(CCC#N)c1ccc(/C=N/NC(=O)CC(=O)Nc2cccc(Cl)c2)cc1 ; TGI = > 100 µM

Form: compound = CCCCCCCCCCCCCC[P+](CCCCCC)(CCCCCC)CCCCCC ; TGI = 0.956 µM
